Experimental system: human recombinant Aurora B (Homo sapiens, UniProt Q96GD4)
Construct: purchased ThermoFisher PR9210B
Sequence (Q96GD4 whole entry): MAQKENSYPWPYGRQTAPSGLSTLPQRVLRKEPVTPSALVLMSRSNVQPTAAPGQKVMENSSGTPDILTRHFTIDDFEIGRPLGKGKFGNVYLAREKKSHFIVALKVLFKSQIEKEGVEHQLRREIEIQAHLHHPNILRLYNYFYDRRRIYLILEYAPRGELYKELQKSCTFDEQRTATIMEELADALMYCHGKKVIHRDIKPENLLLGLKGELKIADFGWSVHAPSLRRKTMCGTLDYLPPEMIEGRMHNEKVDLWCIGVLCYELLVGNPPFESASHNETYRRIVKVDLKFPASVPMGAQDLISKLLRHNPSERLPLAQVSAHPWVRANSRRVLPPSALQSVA
Assay procedure: Aurora B Kinase Biochemical Assay (ADP-Glo)
Applied conditions: selectivity ratio; Aurora B 10 nM, 114 μM ATP
Reported [Aurora B IC50 (nM)]/[PLK4 IC50 (nM)] values for a set of compounds

Q: Entry COc1ccc2c(c1)[C@]1(C[C@H]1c1ccc3c(Nc4nc(-c5cnco5)ncc4OC)n[nH]c3c1)C(=O)N2 [Example 40] has what [Aurora B IC50 (nM)]/[PLK4 IC50 (nM)]?
Result: 410.7334

Q: And COc1ccc2c(c1)[C@]1(C[C@H]1c1ccc3c(Nc4cc(-c5cnn(C)c5)cnc4OC)n[nH]c3c1)C(=O)N2 [Example 26] ?
Result: 921.6946

Q: Now try COc1ccc2c(c1)[C@]1(C[C@H]1c1ccc3c(Nc4ccc(-c5nnn(C)n5)cc4OC)n[nH]c3c1)C(=O)N2 [Example 17] .
Result: 190

Q: Now this one: COc1ccc2c(c1)[C@]1(C[C@H]1c1ccc3c(Nc4cc5c(cc4OC)S(=O)(=O)CC5)n[nH]c3c1)C(=O)N2 [Example 1]
Result: 791.6196

Q: # repeat for COc1ccc2c(c1)[C@]1(C[C@H]1c1ccc3c(Nc4nc(-c5ncco5)cnc4OC)n[nH]c3c1)C(=O)N2 [Example 19]
Result: 460

Q: Now consider COc1ccc2c(c1)[C@]1(C[C@H]1c1ccc3c(Nc4cc(-c5cscn5)ccc4OC)n[nH]c3c1)C(=O)N2 [Example 15] .
Result: 511.8461

Q: Moving on to the next compound: CCOc1cc(S(C)(=O)=O)ccc1Nc1n[nH]c2cc([C@@H]3C[C@@]34C(=O)N(C)c3ccc(OC)cc34)ccc12 [Example 23]
Result: 1017

----------
Experimental system: human recombinant Aurora B (Homo sapiens, UniProt Q96GD4)
Construct: purchased ThermoFisher PR9210B
Assay procedure: Aurora B Kinase Biochemical Assay (ADP-Glo)
Applied conditions: selectivity ratio; Aurora B 10 nM, 114 μM ATP
// map [Aurora B IC50 (nM)]/[PLK4 IC50 (nM)] to label using bin 0 (below 600), bin 1 (600 to below 2000), bin 2 (2000 or more)

{"Smiles": "CCOc1cc(-c2cn(C)cn2)ccc1Nc1n[nH]c2cc([C@@H]3C[C@@]34C(=O)Nc3ccc(OC)cc34)ccc12", "Cat": "bin 0"}
{"Smiles": "CCOc1cnc(C#CC(C)(C)O)nc1Nc1n[nH]c2cc([C@@H]3C[C@@]34C(=O)Nc3ccc(OC)cc34)ccc12", "Cat": "bin 2"}
{"Smiles": "CCOc1cnc(-c2nccs2)nc1Nc1n[nH]c2cc([C@@H]3C[C@@]34C(=O)Nc3ccc(OC)cc34)ccc12", "Cat": "bin 1"}
{"Smiles": "CCOc1cc(-n2cncn2)cnc1Nc1n[nH]c2cc([C@@H]3C[C@@]34C(=O)Nc3ccc(OC)cc34)ccc12", "Cat": "bin 0"}
{"Smiles": "CCOc1ncc(-c2nccs2)nc1Nc1n[nH]c2cc([C@@H]3C[C@@]34C(=O)Nc3ccc(OC)cc34)ccc12", "Cat": "bin 2"}
{"Smiles": "COc1ccc2c(c1)[C@]1(C[C@H]1c1ccc3c(Nc4cc(-c5cnn(C)c5)ccc4OC)n[nH]c3c1)C(=O)N2", "Cat": "bin 1"}
{"Smiles": "CCOc1cc2ccccc2nc1Nc1n[nH]c2cc([C@@H]3C[C@@]34C(=O)Nc3ccc(OC)cc34)ccc12", "Cat": "bin 1"}
{"Smiles": "COc1ccc2c(c1)[C@]1(C[C@H]1c1ccc3c(Nc4cc(-c5cn(C)nc5OC)ccc4OC)n[nH]c3c1)C(=O)N2", "Cat": "bin 2"}
{"Smiles": "COc1ccc2c(c1)[C@]1(C[C@H]1c1ccc3c(Nc4ccc(C(C)=O)cc4OC)n[nH]c3c1)C(=O)N2", "Cat": "bin 0"}
{"Smiles": "COc1ccc2c(c1)[C@]1(C[C@H]1c1ccc3c(Nc4cc(-c5nnn(C)n5)ccc4OC)n[nH]c3c1)C(=O)N2", "Cat": "bin 1"}

Q: Hi there! Could you help me figure out the category for "CCOc1ccc(-c2nccs2)nc1Nc1n[nH]c2cc([C@@H]3C[C@@]34C(=O)Nc3ccc(OC)cc34)ccc12" please?
Result: bin 1

Q: And for "CCS(=O)(=O)c1ccc(Nc2n[nH]c3cc([C@@H]4C[C@@]45C(=O)Nc4ccc(OC)cc45)ccc23)c(OC)c1" ?
Result: bin 0

Q: // next record "COc1ccc2c(c1)[C@]1(C[C@H]1c1ccc3c(Nc4nc(N(C)C)ncc4OC)n[nH]c3c1)C(=O)N2"
Result: bin 0

----------
Experimental system: human recombinant PLK4 (Homo sapiens)
Sequence (O00444 1-970): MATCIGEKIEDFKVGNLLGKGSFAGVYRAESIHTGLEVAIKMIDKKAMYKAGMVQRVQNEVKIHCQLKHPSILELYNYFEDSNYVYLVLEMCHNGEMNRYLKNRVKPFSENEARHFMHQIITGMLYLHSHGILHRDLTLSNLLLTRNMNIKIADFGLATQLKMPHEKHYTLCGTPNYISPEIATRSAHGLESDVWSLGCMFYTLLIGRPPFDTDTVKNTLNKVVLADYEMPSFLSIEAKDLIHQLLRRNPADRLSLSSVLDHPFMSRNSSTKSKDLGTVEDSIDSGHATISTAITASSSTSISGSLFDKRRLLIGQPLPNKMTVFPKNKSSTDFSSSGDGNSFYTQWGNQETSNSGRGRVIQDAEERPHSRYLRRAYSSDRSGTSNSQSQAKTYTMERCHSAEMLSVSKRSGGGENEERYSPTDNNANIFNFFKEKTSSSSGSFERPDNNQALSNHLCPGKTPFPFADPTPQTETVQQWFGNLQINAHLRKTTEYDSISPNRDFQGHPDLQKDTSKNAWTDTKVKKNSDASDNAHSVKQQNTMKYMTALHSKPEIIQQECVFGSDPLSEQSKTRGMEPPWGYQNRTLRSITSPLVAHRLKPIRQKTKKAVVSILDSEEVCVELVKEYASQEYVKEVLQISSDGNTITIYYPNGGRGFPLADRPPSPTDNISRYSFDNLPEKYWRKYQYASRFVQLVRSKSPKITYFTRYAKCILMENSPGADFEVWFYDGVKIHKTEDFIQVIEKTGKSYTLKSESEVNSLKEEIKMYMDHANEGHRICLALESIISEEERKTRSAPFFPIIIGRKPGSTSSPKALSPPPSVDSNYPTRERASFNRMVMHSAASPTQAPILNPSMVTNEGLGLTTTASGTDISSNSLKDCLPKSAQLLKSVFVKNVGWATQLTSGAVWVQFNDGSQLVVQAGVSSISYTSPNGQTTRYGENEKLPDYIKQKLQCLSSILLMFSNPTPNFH
Assay procedure: PLK4 Biochemical Assay (ADP-Glo)
Applied conditions: 0.5 nM PLK4, 8.0 μM ATP, 4.7 μM MBP, 6 hours at RT
pIC50: −log10 of the molar value.
Binary call on pIC50: class 1 from 9 upward, class 0 beneath that.

Sample answers from the record:
{"Smiles": "CCOc1cnc(C#CC(C)(C)O)nc1Nc1n[nH]c2cc([C@@H]3C[C@@]34C(=O)Nc3ccc(OC)cc34)ccc12", "Cat": "class 1"}
{"Smiles": "CCOc1ncc(-c2nccs2)nc1Nc1n[nH]c2cc([C@@H]3C[C@@]34C(=O)Nc3ccc(OC)cc34)ccc12", "Cat": "class 1"}
{"Smiles": "CCOc1cc(-c2cn(C)cn2)ccc1Nc1n[nH]c2cc([C@@H]3C[C@@]34C(=O)Nc3ccc(OC)cc34)ccc12", "Cat": "class 0"}

Q: Decide: pIC50 of "COc1ccc2c(c1)[C@]1(C[C@H]1c1ccc3c(Nc4ccc(-c5nnn(C)n5)cc4OC)n[nH]c3c1)C(=O)N2" >= 9?
Result: class 0

Q: Same question for "COc1ccc2c(c1)[C@]1(C[C@H]1c1ccc3c(Nc4nc(N(C)C)ncc4OC)n[nH]c3c1)C(=O)N2" please.
Result: class 0

----------
As shown below, each of these molecules has a reported pIC50 value.
System: CHP134
Assay procedure: CHP134 CellTiter-Glo (CTG) Assay
Format: cell-based
Applied conditions: Homo sapiens, CHP-134, 120 h; viable cells by CellTiter-Glo after 5 days
# log scale: pIC50 equals minus log10 of the concentration in mol/L

{"Smiles": "COc1ccc2c(c1)[C@]1(C[C@H]1c1ccc3c(Nc4cc(-c5ccon5)ccc4OC)n[nH]c3c1)C(=O)N2", "Assay value": 6.97}

Q: # query: pIC50 of entry "COc1ccc2c(c1)[C@]1(C[C@H]1c1ccc3c(Nc4nc(-c5ncco5)cnc4OC)n[nH]c3c1)C(=O)N2"
Result: 6.77

Q: Proceed to "COc1ccc2c(c1)[C@]1(C[C@H]1c1ccc3c(Nc4cc(-c5ncco5)ccc4OC)n[nH]c3c1)C(=O)N2"
Result: 6.46

----------
Experimental system: human recombinant Aurora A (Homo sapiens)
Construct: purchased ThermoFisher PR5935A
Sequence (O14965 whole entry): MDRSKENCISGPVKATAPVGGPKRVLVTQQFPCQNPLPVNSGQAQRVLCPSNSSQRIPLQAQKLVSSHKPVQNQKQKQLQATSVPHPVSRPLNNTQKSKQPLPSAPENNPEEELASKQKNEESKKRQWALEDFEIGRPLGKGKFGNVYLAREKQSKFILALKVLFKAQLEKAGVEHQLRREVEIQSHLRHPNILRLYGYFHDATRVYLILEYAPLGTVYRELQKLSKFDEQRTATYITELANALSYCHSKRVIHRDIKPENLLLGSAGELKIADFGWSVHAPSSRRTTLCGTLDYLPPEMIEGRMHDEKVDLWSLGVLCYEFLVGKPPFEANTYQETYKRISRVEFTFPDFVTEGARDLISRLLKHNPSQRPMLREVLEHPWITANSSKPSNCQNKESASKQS
Assay procedure: Aurora A Kinase Biochemical Assay (ADP-Glo)
Applied conditions: selectivity ratio; Aurora A 2.5 nM, 20 μM ATP
As shown below, each of these compounds has a reported [Aurora A IC50 (nM)]/[PLK4 IC50 (nM)] value.
Reply with the value as a number alone.

Record excerpt, results attached:
{"Compound": "COc1ccc2c(c1)[C@]1(C[C@H]1c1ccc3c(Nc4cc(-c5nccs5)ccc4OC)n[nH]c3c1)C(=O)N2 [Example 14]", "Experimental system": "human recombinant Aurora A (Homo sapiens)", "Assay value": 187.4804}
{"Compound": "COc1ccc2c(c1)[C@]1(C[C@H]1c1ccc3c(Nc4cc(-c5cnco5)ccc4OC)n[nH]c3c1)C(=O)N2 [Example 18]", "Experimental system": "human recombinant Aurora A (Homo sapiens)", "Assay value": 500}
{"Compound": "COc1ccc2c(c1)[C@]1(C[C@H]1c1ccc3c(Nc4ccc(C(C)=O)cc4OC)n[nH]c3c1)C(=O)N2 [Example 3]", "Experimental system": "human recombinant Aurora A (Homo sapiens)", "Assay value": 1671.3768}
{"Compound": "COc1ccc2c(c1)[C@]1(C[C@H]1c1ccc3c(Nc4cc5c(cc4OC)S(=O)(=O)C=C5)n[nH]c3c1)C(=O)N2 [Example 6]", "Experimental system": "human recombinant Aurora A (Homo sapiens)", "Assay value": 581.0754}
{"Compound": "COc1ccc2c(c1)[C@]1(C[C@H]1c1ccc3c(Nc4nc(N(C)C)ncc4OC)n[nH]c3c1)C(=O)N2 [Example 20]", "Experimental system": "human recombinant Aurora A (Homo sapiens)", "Assay value": 170}

Q: Query: [Aurora A IC50 (nM)]/[PLK4 IC50 (nM)]; subject: COc1ccc2c(c1)[C@]1(C[C@H]1c1ccc3c(Nc4cc5c(cc4OC)S(=O)(=O)CC5)n[nH]c3c1)C(=O)N2 [Example 1]
Result: 2164

Q: Ok, now CCOc1cnc(-c2nccs2)nc1Nc1n[nH]c2cc([C@@H]3C[C@@]34C(=O)Nc3ccc(OC)cc34)ccc12 [Example 44]
Result: 702.5

Q: Here is the next compound: CCOc1cc2ccccc2nc1Nc1n[nH]c2cc([C@@H]3C[C@@]34C(=O)Nc3ccc(OC)cc34)ccc12 [Example 8]
Result: 27382.2563

Q: Can you handle COc1ccc2c(c1)[C@]1(C[C@H]1c1ccc3c(Nc4cc(-c5cnn(CC(F)F)c5)ccc4OC)n[nH]c3c1)C(=O)N2 [Example 39] next?
Result: 1647.6978

Q: One more compound: COc1ccc2c(c1)[C@]1(C[C@H]1c1ccc3c(Nc4cc(-c5cocn5)ccc4OC)n[nH]c3c1)C(=O)N2 [Example 16]
Result: 259.1

Q: Now this one: CCOc1cc(S(C)(=O)=O)ccc1Nc1n[nH]c2cc([C@@H]3C[C@@]34C(=O)N(C)c3ccc(OC)cc34)ccc12 [Example 23]
Result: 2258.3629

Q: Now consider CCOc1ccc(-c2cnn(C)c2)cc1Nc1n[nH]c2cc([C@@H]3C[C@@]34C(=O)Nc3ccc(OC)cc34)ccc12 [Example 37] .
Result: 27839.6436

Q: Do the same for COc1ccc2c(c1)[C@]1(C[C@H]1c1ccc3c(Nc4ccc(S(C)(=O)=O)cc4OC)n[nH]c3c1)C(=O)N2 [Example 2] please
Result: 801.1462

Q: For COc1ccc2c(c1)[C@]1(C[C@H]1c1ccc3c(Nc4nc(-c5ncco5)ccc4OC)n[nH]c3c1)C(=O)N2 [Example 4] then?
Result: 538.2697
